Source of measurements: patent US20140178394A1

# Study Target: T1, HLA-A*0201 on the CEM.T2 cell line (T2) (human)
# T1 construct: whole, on cells
# Assay Overview: T2 cell dissociation assay with Brefeldin A, flow cytometry
Recorded CEM.T2 % Residual Binding, one value per entry.
Reported Metric: CEM.T2 % Residual Binding (%)

{"columns": ["Binder", "Value Reported"],
 "data": [
  ["ALLHSKYGL (Synthetic nonapeptide of human nectin4; the range counts on nectin4; also called Pep N° 80) [Nectin4 peptide 80 (ALLHSKYGL)]", 86],
  ["LLFCLLVVV (Synthetic nonapeptide of human nectin4; the range counts on nectin4) [Nectin4 peptide 359 (LLFCLLVVV)]", 23],
  ["AVTSEFHLV (Synthetic nonapeptide of human nectin4; the range counts on nectin4) [Nectin4 peptide 203 (AVTSEFHLV)]", 0],
  ["AMLKCLSEG (Synthetic nonapeptide of human nectin4; the range counts on nectin4) [Nectin4 peptide 266 (AMLKCLSEG)]", 39],
  ["AALLFCLLV (Synthetic nonapeptide of human nectin4; the range counts on nectin4) [Nectin4 peptide 357 (AALLFCLLV)]", 18],
  ["VVVGVIAAL (Synthetic nonapeptide of human nectin4; the range counts on nectin4) [Nectin4 peptide 351 (VVVGVIAAL)]", 50],
  ["FLAEASVRG (Synthetic nonapeptide of human nectin4; the range counts on nectin4) [Nectin4 peptide 244 (FLAEASVRG)]", 0],
  ["VIAALLFCL (Synthetic nonapeptide of human nectin4; the range counts on nectin4) [Nectin4 peptide 355 (VIAALLFCL)]", 24],
  ["LVSASVVVV (Synthetic nonapeptide of human nectin4; the range counts on nectin4) [Nectin4 peptide 345 (LVSASVVVV)]", 0],
  ["LLASFTGRC (Synthetic nonapeptide of human nectin4; the range counts on nectin4; also called Pep N° 21) [Nectin4 peptide 21 (LLASFTGRC)]", 86]
]}
